// data source = the supplement of paper PMC7125110

B1: glmS ribozyme (parent)
chain: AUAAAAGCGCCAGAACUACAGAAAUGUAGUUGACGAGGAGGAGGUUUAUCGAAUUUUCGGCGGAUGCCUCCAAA

variants of: B1; assay: kcat; higher = faster cleavage; RNA array; conditions: with glucosamine-6-phosphate
Fewer inactive variants are shown than the library holds.
MEASURED_PROPERTY: kcat (s⁻¹)
Your answer should be a plain number; it is taken to be in s⁻¹.

{"columns": ["VARIANT_ANNOTATION", "MEASUREMENT_UNIT", "kcat"],
 "data": [
  ["G32A A39C", "s⁻¹", 0.00032],
  ["U56A U65C", "s⁻¹", 0.00025],
  ["G40A U57A", "s⁻¹", "3.08e-05"],
  ["U46G C58G", "s⁻¹", "2.68e-05"],
  ["C50G", "s⁻¹", 0.000456]
]}

Q: Requested field: kcat. Item: A15U U56G
Result: 0.00786

Q: Queued: G32A C68G
Result: 3.18e-05

Q: Next record, please: C50U G66U
Result: 1.12e-05

Q: Also check A39U A48C
Result: 0.000221

Q: Moving on to the next variant: C16U G60A
Result: 1.69e-05
